Experiment: Solubility test of Ph3TP-hpp by LC/MS analysis (water solubility)
Format: physicochemical
Conditions: thermodynamic from solid; water; from 0.031 mg in 1 mL; read-out: weight fraction of the water solubility
Property: solubility at 5 min (µg/mL)
Give a bare numeral; the unit µg/mL is implied.

Task item: Returns the measured solubility at 5 min for the input compound. Input: c1ccc(-c2cc(-c3cccc(N4CCCN5CCCN=C54)c3)c(-c3ccccc3)c(-c3ccccc3)c2-c2ccccc2)cc1 [Ph3TP-hpp]
Reply: 31
